# Target: PAF receptor (Oryctolagus cuniculus)
# Construct: platelet membranes where prepared by centrifugation and washing; tissue Pel-Freez (Rogers, AR) (whole rabbit blood); host or cells: rabbit platelet membranes
# Sequence (G1TEI7 1-342): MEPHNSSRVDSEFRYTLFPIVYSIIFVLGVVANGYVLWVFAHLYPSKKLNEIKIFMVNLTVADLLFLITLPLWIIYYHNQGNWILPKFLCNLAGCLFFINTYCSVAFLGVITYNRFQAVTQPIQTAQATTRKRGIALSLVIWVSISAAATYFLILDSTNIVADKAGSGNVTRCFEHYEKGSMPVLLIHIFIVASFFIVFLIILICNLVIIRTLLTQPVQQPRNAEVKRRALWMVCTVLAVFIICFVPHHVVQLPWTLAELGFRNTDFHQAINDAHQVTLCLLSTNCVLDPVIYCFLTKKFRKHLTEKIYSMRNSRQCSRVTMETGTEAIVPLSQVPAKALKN
# Assay Overview: PAF receptor binding assay ([3H]C18-PAF, rabbit platelet membranes)
# Assay Setup: read-out: PAF Receptor Binding Activity K1
# Description: The ability of representative compounds of the present invention to inhibit PAF activity was determined in an in vitro test using the following method. Citrated whole rabbit blood was obtained from Pel-Freez (Rogers, AR). Rabbit platelets where prepared by centrifugation and washing. […] The final volume of the assay was 100 μl. […] The bound radioactivity was quantitated with a Berthold TLC-Linear Analyzer model LB2842. […]
Recorded Endpoint: Ki (nM)

Example cases with answers are listed next.
CN(C)C(=O)n1cc(C(=O)c2ccn3c2CSC3c2ccc[n+]([O-])c2)c2ccc(Cl)cc21 (centres unmarked) = 38
CN(C)C(=O)n1cc(C(=O)c2ccn3c2CSC3c2cccnc2)c2ccc(OCc3ccccc3)cc21 (centres unmarked) = 17
O=C(c1ccn2c1CSC2c1cccnc1)c1c[nH]c2cc(-c3ccc(F)cc3)ccc12 (centres unmarked) = 75
COC(=O)CCn1cc(C(=O)c2ccn3c2CSC3c2cccnc2)c2ccc(-c3ccc(F)cc3)cc21 (centres unmarked) = 10

[a] O=C(c1ccn2c1CSC2c1cccnc1)c1c[nH]c2cc(OCc3ccccc3)ccc12 (centres unmarked)
[b] CN(C)C(=O)n1cc(C(=O)c2ccn3c2CSC3c2cccnc2)c2ccccc21 (centres unmarked)
[c] NC(=O)n1cc(C(=O)c2ccn3c2CSC3c2cccnc2)c2ccc(-c3ccc(F)cc3)cc21 (centres unmarked)
[d] CC1(C)SC(c2cccnc2)n2ccc(C(=O)c3c[nH]c4cc(-c5ccc(F)cc5)ccc34)c21 (centres unmarked)
Ordering criterion: Ki; begin with the maximum. Respond with an ordered listing of the labels, as requested.
b, d, a, c
(b: 2000 nM, d: 1100 nM, a: 64 nM, c: 6.1 nM)
